assay: Phase 1/2 clinical study: pharmacokinetics; format: in vivo, human; details: human, plasma, oral, 100 mg, Cycle 1 Day 1; 100 mg QD; arithmetic mean; read-out: t1/2 (converted)
ENDPOINT_LABEL: half-life (h)

INSERT INTO assay_data (entry_smiles, endpoint_label, assay_result) VALUES
  ('CCn1ncc2c1-c1cnc(N)c(c1)O[C@H](C)c1cc(F)ccc1-c1nn(C)nc1C2', 'half-life', 17);

* * *

assay: Phase 1/2 clinical study: pharmacokinetics; assay type: in vivo, human; conditions: human, plasma, oral, 100 mg, Cycle 1 Day 15; 100 mg QD; geometric mean
ENDPOINT_LABEL: AUC(0-inf) (ng·h/mL)

INSERT INTO measurements (compound, endpoint_label, assay_result) VALUES
  ('CCn1ncc2c1-c1cnc(N)c(c1)O[C@H](C)c1cc(F)ccc1-c1nn(C)nc1C2 [Compound 1]', 'AUC(0-inf)', 11000);
